pIC50, CDK2 (human): measured values
pIC50: −log10 of the molar value.
observedProperty: pIC50

{"compound": "Cc1n[nH]cc1-c1ccnc(NCC(C)C)n1", "measured": "> 5.30"}
{"compound": "CC(C)c1n[nH]cc1-c1ccnc(NCc2ccccc2Cl)n1", "measured": "> 6.00"}
{"compound": "CC(C)c1[nH]ncc1-c1ccnc(NC(C)c2ccccc2)c1 (configuration not stated)", "measured": "> 5.30"}
{"compound": "Cc1n[nH]cc1-c1ccnc(NCCCO)n1", "measured": "> 4.82"}
{"compound": "Cc1n[nH]cc1-c1ccnc(NC2CCC2)n1", "measured": "> 5.30"}
{"compound": "CC(C)c1n[nH]cc1-c1ccnc(NCCCN(C)C)n1", "measured": "> 5.00"}
{"compound": "CCC(CC)c1[nH]ncc1-c1ccnc(NC2CCN(C)CC2)c1", "measured": "> 5.00"}
{"compound": "Cc1ccccc1CNc1cc(-c2cn[nH]c2C2CC2)ccn1", "measured": "> 5.30"}
{"compound": "Cc1n[nH]cc1-c1ccnc(NCc2cccnc2)n1", "measured": "> 5.00"}
{"compound": "CC(C)c1[nH]ncc1-c1ccnc(NC2CCCCC2)c1", "measured": "> 6.30"}
{"compound": "CC(C)c1n[nH]cc1-c1ccnc(N[C@@H](C)c2ccccc2)n1", "measured": "> 5.00"}
{"compound": "CC(C)c1n[nH]cc1-c1ccnc(NCc2ccccc2C(F)(F)F)n1", "measured": "> 5.30"}

###

IC50, CDK2 (human): measured values

{"compound": "CC(C)c1n[nH]cc1-c1ccnc(N[C@@H]2CCc3ccccc32)n1", "IC50": "< 5 µM"}
{"compound": "CCC(C)Nc1nccc(-c2c[nH]nc2C)n1 (configuration not stated)", "IC50": "< 5 µM"}
{"compound": "CC(C)c1n[nH]cc1-c1ccnc(NC2CCc3ccccc32)n1 (configuration not stated)", "IC50": "< 1 µM"}
{"compound": "Cc1n[nH]cc1-c1ccnc(NCc2ccccc2)n1", "IC50": "< 15 µM"}
{"compound": "Cc1n[nH]cc1-c1ccnc(NCCC#N)n1", "IC50": "< 15 µM"}
{"compound": "CC(C)c1[nH]ncc1-c1ccnc(NC2CCc3ccccc32)c1 (configuration not stated)", "IC50": "< 5 µM"}
{"compound": "CC(C)COCCCNc1nccc(-c2c[nH]nc2C(C)C)n1", "IC50": "< 5 µM"}
{"compound": "CC(C)c1[nH]ncc1-c1ccnc(NCc2ccncc2)c1", "IC50": "< 5 µM"}
{"compound": "CC(C)c1n[nH]cc1-c1ccnc(NC2CN3CCC2CC3)n1 (configuration not stated)", "IC50": "< 5 µM"}
{"compound": "CC(C)c1n[nH]cc1-c1ccnc(NCc2ccccc2F)n1", "IC50": "< 0.5 µM"}
{"compound": "CC(C)c1n[nH]cc1-c1ccnc(NCCCN(C)c2ccccc2)n1", "IC50": "< 5 µM"}
{"compound": "CC(C)c1n[nH]cc1-c1ccnc(NC(C)c2ccccn2)n1 (configuration not stated)", "IC50": "< 10 µM"}

###

IC50, UniProtKB P24941: measured values
observedProperty: IC50

{"molecule": "CC(C)c1n[nH]cc1-c1nc(NC2CCN(C)CC2)ncc1Br", "measured": "< 5 µM"}
{"molecule": "Cc1n[nH]cc1-c1ccnc(NC2CCN(Cc3ccccc3)C2)n1 (centres undefined)", "measured": "< 10 µM"}
{"molecule": "CC(CCCC(C)(C)O)Nc1nccc(-c2c[nH]nc2C(C)C)n1 (centres undefined)", "measured": "< 5 µM"}
{"molecule": "COCC(C)Nc1nccc(-c2c[nH]nc2C(C)C)n1 (centres undefined)", "measured": "< 1 µM"}
{"molecule": "CC(C)c1n[nH]cc1-c1ccnc(NCc2ccc(N(C)C)cc2)n1", "measured": "< 5 µM"}
{"molecule": "CC(C)c1[nH]ncc1-c1ccnc(NCc2cccc(C(F)(F)F)c2)c1", "measured": "< 5 µM"}
{"molecule": "CCC(C)c1[nH]ncc1-c1ccnc(NCc2ccccc2C)c1 (centres undefined)", "measured": "< 5 µM"}
{"molecule": "CCC(CC)c1[nH]ncc1-c1ccnc(NC2CCc3ccccc32)c1 (centres undefined)", "measured": "< 5 µM"}
{"molecule": "CC(C)c1n[nH]cc1-c1ccnc(NC2CCN(Cc3ccccc3)CC2)n1", "measured": "< 1 µM"}
{"molecule": "Cc1ccccc1CNc1cc(-c2cn[nH]c2C(C)C)ccn1", "measured": "< 5 µM"}
{"molecule": "CC(C)c1[nH]ncc1-c1ccnc(NC2CC2)c1", "measured": "< 1 µM"}
{"molecule": "CC(C)c1n[nH]cc1-c1ccnc(NC2CCc3cc(Cl)ccc32)n1 (centres undefined)", "measured": "< 0.5 µM"}
{"molecule": "CC(C)c1n[nH]cc1-c1ccnc(NC2CCCCC2C)n1 (centres undefined)", "measured": "< 1 µM"}
{"molecule": "CC(C)c1n[nH]cc1-c1ccnc(N[C@H]2CCc3ccccc32)n1", "measured": "< 0.5 µM"}
{"molecule": "Cc1ccccc1CNc1cc(-c2cn[nH]c2C2CCCCCC2)ccn1", "measured": "< 10 µM"}
{"molecule": "CC(C)CCNc1cc(-c2cn[nH]c2C(C)C)ccn1", "measured": "< 5 µM"}
{"molecule": "Cc1n[nH]cc1-c1ccnc(NCc2ccncc2)n1", "measured": "< 15 µM"}
{"molecule": "CC(C)c1[nH]ncc1-c1ccnc(Nc2ccccc2)c1", "measured": "< 0.05 µM"}
{"molecule": "CC(C)c1n[nH]cc1-c1ccnc(NC2CCNCC2)n1", "measured": "< 1 µM"}
{"molecule": "Cc1nnc(CCNc2nccc(-c3c[nH]nc3C(C)C)n2)[nH]1", "measured": "< 5 µM"}
{"molecule": "c1cc(-c2cn[nH]c2C2CCCC2)cc(NC2CCC2)n1", "measured": "< 0.5 µM"}
{"molecule": "Cc1n[nH]cc1-c1ccnc(NCCCn2ccnc2)n1", "measured": "< 10 µM"}
{"molecule": "CC(C)c1n[nH]cc1-c1ccnc(NC2CCCCC2)n1", "measured": "< 0.05 µM"}
{"molecule": "CC(C)c1[nH]ncc1-c1ccnc(NCCCO)c1", "measured": "< 5 µM"}

# credit: the Kinase Knowledgebase extract (Sharma et al. 2016)
